The measurements presented in this section are drawn from patent US9296681B2.

biological target: human recombinant dopamine transporter (DAT) (Homo sapiens (Human), UniProt Q01959); assay: radioligand binding assay, dopamine transporter; conditions: 11 test concentrations, duplicates
Sequence (Q01959 whole entry): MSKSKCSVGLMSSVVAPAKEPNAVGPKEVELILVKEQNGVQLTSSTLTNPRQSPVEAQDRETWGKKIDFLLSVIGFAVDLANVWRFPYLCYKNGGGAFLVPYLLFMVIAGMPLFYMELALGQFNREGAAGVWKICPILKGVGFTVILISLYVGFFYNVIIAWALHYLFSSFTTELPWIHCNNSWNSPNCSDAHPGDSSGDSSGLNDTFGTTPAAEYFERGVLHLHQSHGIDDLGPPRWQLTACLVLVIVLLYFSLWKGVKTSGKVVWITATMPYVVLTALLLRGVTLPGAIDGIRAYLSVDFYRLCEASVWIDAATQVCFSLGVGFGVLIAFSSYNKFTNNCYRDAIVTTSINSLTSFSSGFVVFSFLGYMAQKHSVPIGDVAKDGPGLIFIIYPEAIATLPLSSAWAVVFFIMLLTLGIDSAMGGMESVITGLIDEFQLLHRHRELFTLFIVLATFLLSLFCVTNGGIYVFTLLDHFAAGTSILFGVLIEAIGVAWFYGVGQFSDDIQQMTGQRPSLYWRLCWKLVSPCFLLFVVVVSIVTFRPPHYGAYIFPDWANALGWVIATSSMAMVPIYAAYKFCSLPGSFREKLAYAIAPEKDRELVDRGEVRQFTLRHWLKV
For each of the compounds below, state its Ki.
Field format: number, assumed µM, no unit text.

Sample CCOc1ccc(C2(C(CC(C)C)NCCCC(N)=O)CCC2)cc1 (racemic) [Compound 33b-Racemic] ; Ki observed: 0.472

Lookup result for CC(C)C[C@@H](NCCCC(N)=O)C1(c2ccc(Cl)c(Cl)c2)CCC1 (single isomer, unassigned; isomer-1) [33a-(R)-Isomer] ; measured Ki: 0.00091

Quick note, Ki for CC(C)CC(NCCCC(N)=O)C1(c2ccc(Cl)c(Cl)c2)CCC1 (racemic) [Compound 33a-Racemic] landed at 0.0015

Sure, the documented Ki for CC(C)C[C@H](NCCCC(N)=O)C1(c2ccc(Cl)c(Cl)c2)CCC1 (single isomer, unassigned; isomer-2) [33a-(S)-Isomer] is 0.126
